Field: kon. Provide a value for each of the binders that follow.
Target: T1, human PD-L1-Fc (human, UniProt Q9NZQ7 19-239)
T1 construct: also called hPD-L1-Fc; human PD-L1-Fc (Sino Biological, 70110-D02H); not shown: Fc part
T1 sequence (Q9NZQ7 19-239 limits assumed): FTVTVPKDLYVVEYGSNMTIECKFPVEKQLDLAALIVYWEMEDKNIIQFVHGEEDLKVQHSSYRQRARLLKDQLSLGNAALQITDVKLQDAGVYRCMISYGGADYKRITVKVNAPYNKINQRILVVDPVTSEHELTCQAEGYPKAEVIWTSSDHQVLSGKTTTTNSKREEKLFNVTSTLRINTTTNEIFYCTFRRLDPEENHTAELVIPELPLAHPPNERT
Test: BLI; PD-L1-Fc loaded on the sensor, scFv in solution

4B6 scFv variant H-CDR2-2 (scFv, also called 4B6-H-CDR2-2) scFv: DIQMTQSPSSLSASVGDRVTITCKASQNVGAAVAWYQQKPGKAPKLLIYSASNRYTGVPSRFSGSGSGTDFTLTISSLQPEDIATYYCQQYSNYPTFGQGTKLEIKGGGGSGGGGSGGGGSQVQLVQSGAEVKKPGASVKVSCKASGYVFTDYYMNWVRQAPGQSLEWMGDINPNNAQTQYNHKFKGRVTVTVDKSISTAYMELSRLRSDDTAVYYCVKWGDGPFAYWGQGTLVTVSS: 101000 M⁻¹ s⁻¹

Now consider the entry below.
Query: Tell me its kon given 4B6-HgLa scFv (wild-type sequence for affinity maturation) (scFv, written VL-linker-VH; also called L-CDR1-WT; L-CDR2-WT) scFv: DIQMTQSPSSLSASVGDRVTITCKASQNVGAAVAWYQQKPGKAPKLLIYSASNRYTGVPSRFSGSGSGTDFTLTISSLQPEDIATYYCQQYSNYPTFGQGTKLEIKGGGGSGGGGSGGGGSQVQLVQSGAEVKKPGASVKVSCKASGYVFTDYYMNWVRQAPGQSLEWMGDINPNNAGTSYNHKFKGRVTVTVDKSISTAYMELSRLRSDDTAVYYCVKWGDGPFAYWGQGTLVTVSS as the entry.
Response: 46300 M⁻¹ s⁻¹
